Test system: BRCA2
Assay: 3' UTR reporter interaction score (median-centred robust z-score of log2 firefly/Renilla activity); higher = less repression of the 3' UTR reporter
Settings: HEK293T; 48 h
Assignment: determine reported 3' UTR reporter interaction score for the given sequences.
Lab note: jot down the number only; don't add units.

Inquiry: # input sequence: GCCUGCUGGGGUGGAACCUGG ; wanted: its 3' UTR reporter interaction score
Reply text: 0.403

Inquiry: # input sequence: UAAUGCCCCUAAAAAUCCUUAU ; wanted: its 3' UTR reporter interaction score
Reply text: 1.14

Inquiry: # input sequence: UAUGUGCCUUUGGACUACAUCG ; wanted: its 3' UTR reporter interaction score
Reply text: -1.13

Inquiry: # input sequence: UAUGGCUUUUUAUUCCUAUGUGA ; wanted: its 3' UTR reporter interaction score
Reply text: 0.03

Inquiry: # input sequence: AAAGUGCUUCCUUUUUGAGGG ; wanted: its 3' UTR reporter interaction score
Reply text: 0.142

Inquiry: # input sequence: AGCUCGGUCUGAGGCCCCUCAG ; wanted: its 3' UTR reporter interaction score
Reply text: 1.86

Inquiry: # input sequence: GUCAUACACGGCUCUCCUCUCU ; wanted: its 3' UTR reporter interaction score
Reply text: 0.502

Inquiry: # input sequence: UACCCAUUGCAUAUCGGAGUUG ; wanted: its 3' UTR reporter interaction score
Reply text: 1.65

Inquiry: # input sequence: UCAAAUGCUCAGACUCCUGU ; wanted: its 3' UTR reporter interaction score
Reply text: -3.48

Inquiry: # input sequence: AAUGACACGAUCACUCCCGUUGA ; wanted: its 3' UTR reporter interaction score
Reply text: -1.49

Inquiry: # input sequence: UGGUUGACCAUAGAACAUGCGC ; wanted: its 3' UTR reporter interaction score
Reply text: -0.794

Inquiry: # input sequence: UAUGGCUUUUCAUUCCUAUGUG ; wanted: its 3' UTR reporter interaction score
Reply text: -1.68

Inquiry: # input sequence: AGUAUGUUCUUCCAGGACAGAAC ; wanted: its 3' UTR reporter interaction score
Reply text: -2.15

Inquiry: # input sequence: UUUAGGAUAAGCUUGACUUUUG ; wanted: its 3' UTR reporter interaction score
Reply text: 0.711

Inquiry: # input sequence: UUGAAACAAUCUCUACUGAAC ; wanted: its 3' UTR reporter interaction score
Reply text: -0.93

---

Tested on: MYB
Assay: 3' UTR reporter interaction score (median-centred robust z-score of log2 firefly/Renilla activity); higher = less repression of the 3' UTR reporter
Conditions: HEK293T; 48 h
Categories are defined by ranges of 3' UTR reporter interaction score, namely lo (below -0.2), mid (-0.2 to below 0.6), hi (0.6 or more)

Inquiry: Which category does the recorded 3' UTR reporter interaction score put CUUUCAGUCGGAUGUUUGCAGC in?
Reply text: mid

Inquiry: Which category does the recorded 3' UTR reporter interaction score put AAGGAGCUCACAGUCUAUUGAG in?
Reply text: hi

Inquiry: Which category does the recorded 3' UTR reporter interaction score put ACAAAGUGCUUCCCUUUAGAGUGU in?
Reply text: mid

Inquiry: Which category does the recorded 3' UTR reporter interaction score put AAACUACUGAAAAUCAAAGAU in?
Reply text: hi

Inquiry: Which category does the recorded 3' UTR reporter interaction score put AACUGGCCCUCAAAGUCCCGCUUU in?
Reply text: lo

Inquiry: Which category does the recorded 3' UTR reporter interaction score put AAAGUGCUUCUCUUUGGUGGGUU in?
Reply text: lo

Inquiry: Which category does the recorded 3' UTR reporter interaction score put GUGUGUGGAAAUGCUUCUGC in?
Reply text: hi

Inquiry: Which category does the recorded 3' UTR reporter interaction score put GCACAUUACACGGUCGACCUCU in?
Reply text: hi

Inquiry: Which category does the recorded 3' UTR reporter interaction score put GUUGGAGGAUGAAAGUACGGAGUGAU in?
Reply text: mid

Inquiry: Which category does the recorded 3' UTR reporter interaction score put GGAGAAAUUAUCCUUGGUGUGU in?
Reply text: mid

Inquiry: Which category does the recorded 3' UTR reporter interaction score put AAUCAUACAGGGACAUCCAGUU in?
Reply text: mid

Inquiry: Which category does the recorded 3' UTR reporter interaction score put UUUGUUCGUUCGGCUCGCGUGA in?
Reply text: lo

Inquiry: Which category does the recorded 3' UTR reporter interaction score put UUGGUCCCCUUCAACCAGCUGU in?
Reply text: mid

Inquiry: Which category does the recorded 3' UTR reporter interaction score put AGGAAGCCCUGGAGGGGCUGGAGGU in?
Reply text: mid

Inquiry: Which category does the recorded 3' UTR reporter interaction score put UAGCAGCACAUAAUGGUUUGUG in?
Reply text: lo

---

Assignment: determine reported 3' UTR reporter interaction score for the given sequences.
System: EZH2
Assay: 3' UTR reporter interaction score (median-centred robust z-score of log2 firefly/Renilla activity); higher = less repression of the 3' UTR reporter
Conditions: HEK293T; 48 h
Lab note: jot down the number only; don't add units.

Inquiry: # input sequence: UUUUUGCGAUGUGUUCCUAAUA ; wanted: its 3' UTR reporter interaction score
Reply text: 1.27

Inquiry: # input sequence: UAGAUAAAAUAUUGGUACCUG ; wanted: its 3' UTR reporter interaction score
Reply text: 0.412

Inquiry: # input sequence: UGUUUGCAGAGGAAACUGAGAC ; wanted: its 3' UTR reporter interaction score
Reply text: 0.739

Inquiry: # input sequence: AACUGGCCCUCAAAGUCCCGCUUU ; wanted: its 3' UTR reporter interaction score
Reply text: 0.347

Inquiry: # input sequence: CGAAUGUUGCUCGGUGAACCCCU ; wanted: its 3' UTR reporter interaction score
Reply text: -0.254

Inquiry: # input sequence: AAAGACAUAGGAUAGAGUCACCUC ; wanted: its 3' UTR reporter interaction score
Reply text: -0.299

Inquiry: # input sequence: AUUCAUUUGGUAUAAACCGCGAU ; wanted: its 3' UTR reporter interaction score
Reply text: -0.0582

Inquiry: # input sequence: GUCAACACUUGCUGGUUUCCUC ; wanted: its 3' UTR reporter interaction score
Reply text: 1.25

Inquiry: # input sequence: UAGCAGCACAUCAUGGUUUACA ; wanted: its 3' UTR reporter interaction score
Reply text: -0.225

Inquiry: # input sequence: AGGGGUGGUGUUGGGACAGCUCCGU ; wanted: its 3' UTR reporter interaction score
Reply text: 0.203

Inquiry: # input sequence: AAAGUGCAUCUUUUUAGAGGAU ; wanted: its 3' UTR reporter interaction score
Reply text: -0.581

Inquiry: # input sequence: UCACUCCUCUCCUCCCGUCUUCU ; wanted: its 3' UTR reporter interaction score
Reply text: -1.64

Inquiry: # input sequence: AUUACAUGGCCAAUCUC ; wanted: its 3' UTR reporter interaction score
Reply text: -0.208

Inquiry: # input sequence: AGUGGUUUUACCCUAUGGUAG ; wanted: its 3' UTR reporter interaction score
Reply text: 0.908

Inquiry: # input sequence: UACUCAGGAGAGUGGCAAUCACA ; wanted: its 3' UTR reporter interaction score
Reply text: -0.403

---

Tested on: MYT1L
Test: 3' UTR reporter interaction score (median-centred robust z-score of log2 firefly/Renilla activity); higher = less repression of the 3' UTR reporter
Settings: HEK293T; 48 h
observable: 3' UTR reporter interaction score
Lab note: jot down the number only; don't add units.

Inquiry: # input sequence: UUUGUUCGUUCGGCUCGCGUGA ; wanted: its 3' UTR reporter interaction score
Reply text: -0.751

Inquiry: # input sequence: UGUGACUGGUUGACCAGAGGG ; wanted: its 3' UTR reporter interaction score
Reply text: -0.108

Inquiry: # input sequence: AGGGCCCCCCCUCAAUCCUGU ; wanted: its 3' UTR reporter interaction score
Reply text: 0.617

Inquiry: # input sequence: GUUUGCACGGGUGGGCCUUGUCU ; wanted: its 3' UTR reporter interaction score
Reply text: 2.21

Inquiry: # input sequence: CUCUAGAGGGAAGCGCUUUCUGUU ; wanted: its 3' UTR reporter interaction score
Reply text: 0.721

Inquiry: # input sequence: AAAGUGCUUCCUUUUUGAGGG ; wanted: its 3' UTR reporter interaction score
Reply text: -0.441

Inquiry: # input sequence: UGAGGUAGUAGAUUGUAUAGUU ; wanted: its 3' UTR reporter interaction score
Reply text: 0.00725

Inquiry: # input sequence: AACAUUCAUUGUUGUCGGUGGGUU ; wanted: its 3' UTR reporter interaction score
Reply text: 1.2

Inquiry: # input sequence: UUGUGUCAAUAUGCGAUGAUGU ; wanted: its 3' UTR reporter interaction score
Reply text: -0.212

Inquiry: # input sequence: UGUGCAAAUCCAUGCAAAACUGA ; wanted: its 3' UTR reporter interaction score
Reply text: -0.216

Inquiry: # input sequence: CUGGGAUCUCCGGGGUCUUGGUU ; wanted: its 3' UTR reporter interaction score
Reply text: -0.147

Inquiry: # input sequence: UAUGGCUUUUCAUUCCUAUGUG ; wanted: its 3' UTR reporter interaction score
Reply text: 0.255

Inquiry: # input sequence: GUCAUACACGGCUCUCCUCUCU ; wanted: its 3' UTR reporter interaction score
Reply text: -0.904

Inquiry: # input sequence: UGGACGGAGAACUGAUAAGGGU ; wanted: its 3' UTR reporter interaction score
Reply text: 0.408

Inquiry: # input sequence: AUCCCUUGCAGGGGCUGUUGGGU ; wanted: its 3' UTR reporter interaction score
Reply text: 0.613

Inquiry: # input sequence: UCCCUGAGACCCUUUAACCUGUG ; wanted: its 3' UTR reporter interaction score
Reply text: 0.364

Inquiry: # input sequence: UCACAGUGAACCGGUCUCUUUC ; wanted: its 3' UTR reporter interaction score
Reply text: 0.655

Inquiry: # input sequence: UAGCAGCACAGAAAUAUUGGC ; wanted: its 3' UTR reporter interaction score
Reply text: -1.5

Inquiry: # input sequence: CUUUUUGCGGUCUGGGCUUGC ; wanted: its 3' UTR reporter interaction score
Reply text: 1.18

Inquiry: # input sequence: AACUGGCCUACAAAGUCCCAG ; wanted: its 3' UTR reporter interaction score
Reply text: -0.789

Inquiry: # input sequence: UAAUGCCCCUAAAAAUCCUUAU ; wanted: its 3' UTR reporter interaction score
Reply text: 0.18

Inquiry: # input sequence: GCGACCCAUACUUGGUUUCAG ; wanted: its 3' UTR reporter interaction score
Reply text: -5.03e-17

Inquiry: # input sequence: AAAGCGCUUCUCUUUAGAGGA ; wanted: its 3' UTR reporter interaction score
Reply text: -0.414

Inquiry: # input sequence: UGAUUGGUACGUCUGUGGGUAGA ; wanted: its 3' UTR reporter interaction score
Reply text: 0.161

Inquiry: # input sequence: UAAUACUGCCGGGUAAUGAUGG ; wanted: its 3' UTR reporter interaction score
Reply text: 1.25

Inquiry: # input sequence: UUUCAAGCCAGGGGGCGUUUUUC ; wanted: its 3' UTR reporter interaction score
Reply text: 0.976

Inquiry: # input sequence: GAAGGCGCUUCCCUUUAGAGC ; wanted: its 3' UTR reporter interaction score
Reply text: 0.364

Inquiry: # input sequence: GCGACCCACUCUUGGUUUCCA ; wanted: its 3' UTR reporter interaction score
Reply text: -0.645

Inquiry: # input sequence: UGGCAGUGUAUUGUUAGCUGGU ; wanted: its 3' UTR reporter interaction score
Reply text: -0.141

Inquiry: # input sequence: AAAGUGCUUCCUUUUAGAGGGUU ; wanted: its 3' UTR reporter interaction score
Reply text: -0.468

Inquiry: # input sequence: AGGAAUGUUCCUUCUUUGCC ; wanted: its 3' UTR reporter interaction score
Reply text: -0.098

Inquiry: # input sequence: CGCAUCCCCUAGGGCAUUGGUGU ; wanted: its 3' UTR reporter interaction score
Reply text: -3.16
